Would you mind telling me the reported TGI of each entry?
- System: UACC-62 melanoma
- Assay Text: NCI tumour cell line growth inhibition, 48 h
Residues, ends and D or L forms follow the SMILES beside them. *: point of attachment. Boc = CC(C)(C)OC(=O)*; OBn = c1ccc(CO*)cc1

Lab book: TGI of NCCCCCCCCCCn1c2c(c3ccccc3c1=O)C(=O)c1ccccc1-2 noted as 29.4 µM

Lab book: TGI of O=C(CSc1nc2ccccc2c2ccccc12)c1ccccc1 noted as > 100 µM

Lab book: TGI of CC(C)CC(NC(=O)OC(C)(C)C)C(=O)NC(CC(=O)OCc1ccccc1)C(N)=O (stereo not drawn) (Boc-Leu-Asp(OBn)-NH2; configuration not given here) noted as > 100 µM

Lab book: TGI of COc1c(C)c(O)c2c(=O)cc(-c3ccccc3)oc2c1C noted as > 100 µM

Lab book: TGI of CC1(C)C(N(O)C(=O)Nc2ccc(Cl)cc2)N(c2ccc(Cl)cc2)C(=O)N1CC(=O)N/N=C/C=C/c1ccc([N+](=O)[O-])o1 (stereo not given) noted as 3.91 µM

Lab book: TGI of Cc1cc2c(s1)C(N)CC2=O (stereo not given) noted as > 100 µM

Lab book: TGI of Cc1[nH]c(=O)[nH]c(=S)c1C(=O)NC1C2CCCCC2NC2CCCCC21 (stereo not given) noted as 16.3 µM

Lab book: TGI of CCC[CH2][Sn]1([CH2]CCC)[O]C(=O)c2cccc(C)c2[O]1 noted as 1.82 µM

Lab book: TGI of CC(=O)NCCC1CNc2ccccc21 (stereo not given) noted as > 100 µM

Lab book: TGI of COc1ccc(O)c(/C=N/NC(=S)N2CCCCC2)c1 noted as 23.8 µM

###

Would you mind telling me the reported GI50 of each entry?
- Test system: OVCAR-5 ovarian
- Assay Text: NCI tumour cell line growth inhibition, 48 h

Form field, GI50 with OVCAR-5 ovarian, item COc1cccc(/C=N/[N-]C(=O)c2ccncc2)c1[O-].[Ni+2].[OH3+] : > 100 µM

Form field, GI50 with OVCAR-5 ovarian, item Clc1ccc2c(c1)C(Br)c1cc(Cl)cc(Cl)c1-2 (stereo not given) : > 100 µM

Form field, GI50 with OVCAR-5 ovarian, item O=C(COc1nc2ccccc2nc1-c1ccccc1)Nc1ccc(Cl)cc1 : 11 µM

Form field, GI50 with OVCAR-5 ovarian, item CCC(CC)c1nc(Nc2cccc(OC)c2)c2ccccc2n1 : 9.68 µM

Form field, GI50 with OVCAR-5 ovarian, item COc1cc(-c2ccc(-c3ccc(C(=N)N)cc3)s2)cc(OC)c1OC : 3.46 µM

Form field, GI50 with OVCAR-5 ovarian, item CS(=O)(=O)O[C@H]1C(=O)N(c2cc3c4ccccc4ccc3c3ccccc23)[C@@H]1c1ccccc1 : 0.574 µM

Form field, GI50 with OVCAR-5 ovarian, item Cn1ncc(NC(=O)c2nc(-c3c(F)cccc3F)sc2N)c1N1CC[C@@H](N)[C@H](F)CC1 : 16.5 µM

Form field, GI50 with OVCAR-5 ovarian, item CNC(=O)NCC1OC(n2cnc3c(NC(=O)Nc4ccccc4)ncnc32)C(O[Si](C)(C)C(C)(C)C)C1CC(=O)N(C)OC (stereo not given) : 16.8 µM

Form field, GI50 with OVCAR-5 ovarian, item CC1=C2O[C@]3(O)C=C2C(=C(O)C1=O)[C@@H]1O[C@H](CC[C@H](C)/C=C(\C)C[C@@H](C)C[C@@H]3C)[C@H](C)[C@H](O)[C@H]1C : 0.767 µM

Form field, GI50 with OVCAR-5 ovarian, item CCO/C=N/C1=C(C#N)C(c2ccc(OC)cc2)c2sc3c(F)cccc3c2O1 (stereo not given) : 6.8 µM

###

Would you mind telling me the reported TGI of each entry?
- Test system: NCI/ADR-RES ovarian
- Assay Text: NCI tumour cell line growth inhibition, 48 h

Lab book: TGI of CC(C)(C)OC(=O)NCCc1ccc(N)cc1 noted as > 100 µM

Lab book: TGI of N[C@]1(C(=O)O)C[C@@H]2C(Br)=NO[C@@H]2C1 noted as > 100 µM

Lab book: TGI of CC(=O)OC1C2CCC1C1C2N=NN1c1ccc([N+](=O)[O-])cc1 (stereo not given) noted as > 100 µM

Lab book: TGI of c1ccc([P+](c2ccccc2)(c2ccccc2)c2ccc3c4ccc([P+](c5ccccc5)(c5ccccc5)c5ccccc5)c5cccc(c6cccc2c63)c54)cc1 noted as > 100 µM

Lab book: TGI of Cc1c2c(cc3c1[nH]c1ccccc13)C(c1ccc(Cl)cc1)=NCC2 noted as 1.39 µM

###

Would you mind telling me the reported TGI of each entry?
- Tested on: MALME-3M melanoma
- Assay Text: NCI tumour cell line growth inhibition, 48 h
Residues, ends and D or L forms follow the SMILES beside them. *: point of attachment. Boc = CC(C)(C)OC(=O)*; OBn = c1ccc(CO*)cc1

Lab book: TGI of O=C(CCc1n[nH]c(=S)o1)Nc1ccc(Cl)cc1Cl noted as > 100 µM

Lab book: TGI of CN(C)c1cc[n+](/C(NS(=O)(=O)c2cc(C(=O)Nc3ccc(Cl)cc3)c(Cl)cc2[S-])=C(\C#N)C(=O)c2ccccc2)cc1 noted as > 100 µM

Lab book: TGI of Clc1cccc(Cl)c1C1SCc2nc3ccccc3n21 (centres undefined) noted as > 100 µM

Lab book: TGI of Nc1nc(-c2ccco2)cc(-c2ccco2)n1 noted as > 100 µM

Lab book: TGI of NCCCOc1cc2ccccc2cc1C(=O)NCCOc1nc2ccccc2cc1C(=O)Nc1ccc(Cl)cc1O noted as 2.79 µM

Lab book: TGI of O=C(CC1(O)C(=O)Nc2c(Cl)ccc(Cl)c21)c1ccco1 (centres undefined) noted as 34.7 µM

Lab book: TGI of COc1cc2c(cc1OC)C1[C@@H](c3ccccc3)OCN1CC2 (some centres undefined) noted as > 100 µM

Lab book: TGI of CCOC(=O)N1C/C(=C/c2ccc(Cl)cc2)C(=O)/C(=C/c2ccc(Cl)cc2)C1 noted as 32 µM

Lab book: TGI of c1ccc([P+](c2ccccc2)(c2ccccc2)c2ccc3c4ccc([P+](c5ccccc5)(c5ccccc5)c5ccccc5)c5cccc(c6cccc2c63)c54)cc1 noted as 2.56 µM

Lab book: TGI of O=c1c2cc(F)ccc2sc2c(Nc3ccncc3)nc3ccccc3c12 noted as 3.42 µM

Lab book: TGI of Cc1cc(Nc2ccc(S(=O)(=O)O)cc2)c2ccccc2n1 noted as > 100 µM

Lab book: TGI of COC1=CC(=Nc2c(Cl)cc(Cl)cc2OC(=O)c2ccc([N+](=O)[O-])cc2)C=C(OC)C1=O noted as 28.9 µM

Lab book: TGI of CN(C)/C=C1\CCc2ccc([N+](=O)[O-])cc2C1=O noted as > 100 µM

Lab book: TGI of CCN(CC)CCNc1ccc2nnn3c4ccc([N+](=O)[O-])cc4c(=O)c1c23 noted as 62.9 µM

Lab book: TGI of CCC(=O)/C=C/c1ccccc1 noted as > 100 µM

Lab book: TGI of CC(C)CC(NC(=O)OC(C)(C)C)C(=O)NC(CC(=O)OCc1ccccc1)C(N)=O (stereo not drawn) (Boc-Leu-Asp(OBn)-NH2; configuration not given here) noted as > 100 µM

Lab book: TGI of O=C(/C=C/NC(=O)OCc1ccccc1)OCc1ccccc1 noted as > 100 µM

Lab book: TGI of O=C(CSc1nnc(SCC(=O)NN=C2CCCCC2)s1)NN=C1CCCCC1 noted as > 100 µM

Lab book: TGI of CCn1cc(C(=O)O)c(=O)c2cc(F)c(N3CCN(CN4C(=O)/C(=N\c5ncc(Cc6cc(OC)c(OC)c(OC)c6)c(N)n5)c5cc(Cl)ccc54)CC3)cc21 noted as > 100 µM

###

Would you mind telling me the reported TGI of each entry?
- Tested on: M14 melanoma
- Assay Text: NCI tumour cell line growth inhibition, 48 h

Lab book: TGI of CCNC(=O)N(CC)CN(CC)C(=O)NCC noted as > 100 µM

Lab book: TGI of CC1=CC(C)(C)[C@H]2O[C@@]3(O)C[C@]4(C)[C@H]5C[C@@](C(C)C)(O[C@H]4c4ccoc4)O[C@H]4[C@]5(C3)O[C@@]1(O)[C@]24O noted as > 100 µM

Lab book: TGI of COc1cc([C@@H]2c3cc4c(cc3[C@@H](Nc3ccc(N=Cc5ccc(C(=O)O[C@@H](C(=O)O[C@H]6C[C@@]7(O)[C@@H](OC(=O)c8ccccc8)[C@@H]8[C@]9(OC(C)=O)CO[C@@H]9C[C@H](O)[C@@]8(C)C(=O)[C@H](OC(C)=O)C(=C6C)C7(C)C)[C@@H](NC(=O)c6ccccc6)c6ccccc6)cc5)cc3)[C@H]3COC(=O)[C@H]23)OCO4)cc(OC)c1O noted as > 50 µM

Lab book: TGI of Cc1cc(=O)oc2cc(OCc3nc4ccccc4c(=O)n3-c3ccccc3)ccc12 noted as > 100 µM

Lab book: TGI of CCN(CC)CCNc1ccc2nnn3c4ccc([N+](=O)[O-])cc4c(=O)c1c23 noted as 49.7 µM

Lab book: TGI of CC(=O)/C=C/c1ccc(OCc2ccc(C(C)(C)C)cc2)cc1 noted as > 1000 µM

Lab book: TGI of CN(C)CCNc1ccc2nnn3c4ccccc4c(=O)c1c23 noted as 9.03 µM
